All figures here come from patent US20250353873A1.

- Tested on: human APOE RNA
- METHOD_SUMMARY: Dose-dependent inhibition of human APOE RNA in HepG2 cells, electroporation, 50,000 cells per well, RT-PCR normalized to GAPDH (Example 4, Tables 8-10)
- Format: cell-based
- TEST_SETTINGS: 1,280 nM; HepG2, electroporation, 16-hour treatment
Strand notation (5' to 3'): a small letter for the sugar, then the base; units joined by * are phosphorothioate-linked, units joined directly phosphodiester-linked; [ ] holds rarer units or linkages, { } end groups; capitals alone tell only the bases. e = 2'-O-(2-methoxyethyl) (MOE); k = constrained ethyl (cEt); [5mC] = 5-methylcytosine; d = 2'-deoxy (DNA)
ENDPOINT: APOE RNA (% UTC)
Give bare numbers, in % UTC.

# SUBSTANCE, EXPERIMENTAL_SYSTEM, APOE RNA (% UTC)
data = [
    ("1757565 (eA*e[5mC]eTeTkG*dG*dT*dG*dA*dA*dT*d[5mC]*dT*dT*dT*eAeTeT*eA*eA; antisense) [Compound 1757565]", "human APOE RNA", 49),
    ("1757556: mixed MOE/cEt gapmer TTGGTGAATCTTTATTAA, sugar eeeeeddddddddekkee, linkages soossssssssssooss (eT*eTeGeG*eT*dG*dA*dA*dT*d[5mC]*dT*dT*dT*eAkTkT*eA*eA) [compound 1757556]", "human APOE RNA", 71),
    ("1757582 (eT*eTeGkGkT*dG*dA*dA*dT*d[5mC]*dT*dT*dT*dA*dT*eTeAeA*eA*e[5mC]; antisense) [Compound 1757582]", "human APOE RNA", 29),
]

For every record below, what is its APOE RNA (% UTC)?
1. 1757563: mixed MOE/cEt gapmer TTGGTGAATCTTTATTAA, sugar eeeekddddddddkekee, linkages soossssssssssooss (eT*eTeGeG*kT*dG*dA*dA*dT*d[5mC]*dT*dT*dT*kAeTkT*eA*eA) [compound 1757563]
2. 1757585 (eT*eTeGkGkT*dG*dA*dA*dT*d[5mC]*dT*dT*dT*dA*dT*kTeAeA*eA*e[5mC]; antisense) [Compound 1757585]

result:
1: 54; 2: 19

---

- Tested on: human APOE RNA
- METHOD_SUMMARY: Activity in APOE C57BL/6NTac-Apoeem7250 knock-in mice, single ICV bolus, 20 weeks (Example 13)
- Type: in vivo
- TEST_SETTINGS: spinal cord; single ICV bolus 300 μg; 20 weeks post treatment; normalized to mouse Ppia
Strand notation (5' to 3'): a small letter for the sugar, then the base; units joined by * are phosphorothioate-linked, units joined directly phosphodiester-linked; [ ] holds rarer units or linkages, { } end groups; capitals alone tell only the bases. [ms] = mesyl phosphoramidate linkage; e = 2'-O-(2-methoxyethyl) (MOE); k = constrained ethyl (cEt); [5mC] = 5-methylcytosine; d = 2'-deoxy (DNA)
ENDPOINT: APOE RNA (% control) Spinal Cord

For orientation, consider the following solved cases.
# SUBSTANCE, EXPERIMENTAL_SYSTEM, APOE RNA (% control) Spinal Cord
rows = [
    ("1736522: 6-10-4 MOE gapmer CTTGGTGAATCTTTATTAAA, linkages sooosszzssssssssoss (e[5mC]*eTeTeGeG*eT*dG[ms]dA[ms]dA*dT*d[5mC]*dT*dT*dT*dA*dT*eTeA*eA*eA) [compound 1736522]", "human APOE RNA", "56 % control"),
    ("1778107: 6-10-4 MOE gapmer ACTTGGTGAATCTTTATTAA, linkages sooossszzsssssszsss (eA*e[5mC]eTeTeG*eG*dT*dG[ms]dA[ms]dA*dT*d[5mC]*dT*dT*dT*dA[ms]eT*eT*eA*eA) [compound 1778107]", "human APOE RNA", "32 % control"),
    ("1785589 (k[5mC]*kT*kT*dG[ms]dG[ms]dT[ms]dG*dA*dA*dT[ms]d[5mC][ms]dT*dT*dT*dA*dT*kT*kA*dA[ms]kA; antisense) [Compound 1785589]", "human APOE RNA", "30 % control"),
]

# context switch: different substance, same APOE RNA (% control) Spinal Cord
query: Value wanted: APOE RNA (% control) Spinal Cord (human APOE RNA) of entry 1693144: 6-10-4 MOE gapmer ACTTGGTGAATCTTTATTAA, linkages soosssszzzssssszsss (eA*e[5mC]eTeT*eG*eG*dT*dG[ms]dA[ms]dA[ms]dT*d[5mC]*dT*dT*dT*dA[ms]eT*eT*eA*eA) [compound 1693144]
result: 71 % control
